target-entity: T1, zCON9_A
T1 chain: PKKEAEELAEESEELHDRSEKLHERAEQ
measurement-notes: two-hybrid library CCmax;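 further: natural log of median RNA to DNA barcode read ratio; higher means stronger binding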
assay-readout: interaction score

1. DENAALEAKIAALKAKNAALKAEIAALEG [4H1401-AA] : -1.95
2. DEIAALEAENAALEAENAALEAEIAALEG [P1-AA] : -1.8

(P) DENAALEAKNAALKAEIAALEAEIAALEG [P9-AA]
(Q) DEIAALEAKNAALKAEIAALEAKNAALKG [P7-AA]
Hi, I'm comparing P with Q and wondering which one has the bigger number for interaction score. Any idea? # answer = label of selected item
P

(1) DKNAALKAEIAALEAENAALEAKIAALKG [4H3606-AA]
(2) ASIRRLEQEVNQERSRMAYLQTLLAKIEQ [4H_BCR]
Kindly identify the item with the lower interaction score figure among these two: 1 and 2 Which one? Tell me its label.
2
